Each recorded value in this set is attributed to patent US8871753B2.

target: human JAK1 (a.a. 837-1142) (Homo sapiens, UniProt P23458); construct: human JAK1 (a.a. 837-1142); His tag (N); made in house; host or cells: insect cells (baculovirus); assay: In vitro JAK kinase assay (HTRF, phosphorylation of a biotinylated peptide), JAK1; format: biochemical; settings: method AA1 (90 μM ATP) or AA2 (1000 μM ATP), not stated per value; read-out: JAK1 IC50
Sequence (P23458 849-1154): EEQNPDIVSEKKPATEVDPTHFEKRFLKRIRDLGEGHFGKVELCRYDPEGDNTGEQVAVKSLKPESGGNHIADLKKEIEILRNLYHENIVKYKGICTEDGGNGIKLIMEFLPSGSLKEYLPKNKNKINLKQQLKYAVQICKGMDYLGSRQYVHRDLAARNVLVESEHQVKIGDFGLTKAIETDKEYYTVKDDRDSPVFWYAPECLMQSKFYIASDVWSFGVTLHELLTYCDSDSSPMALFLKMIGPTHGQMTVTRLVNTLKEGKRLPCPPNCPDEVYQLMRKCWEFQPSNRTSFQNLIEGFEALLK
Where a name gives a salt, the structure may show the parent alone.
PROPERTY: log10 IC50 (log10 of the value in nM)
For clarity, the numbers are log10 values of IC50 expressed in nM.

| COMPOUND | TARGET | log10 IC50 |
| --- | --- | --- |
| NS(=O)(=O)N1CCC(CC(=O)Nc2ccc3cc2CCc2cccc(c2)Nc2ncc(Cl)c(n2)N3)CC1 [Example A75, trifluoroacetate] | human JAK1 (a.a. 837-1142) (Homo sapiens, UniProt P23458) | -0.70 |
| O=C(CC1CCN(C(=O)c2cnoc2C2CC2)CC1)Nc1ccc2cc1CCc1cncc(c1)Nc1ncc(Cl)c(n1)N2 [Example A213, bis(trifluoroacetate)] | human JAK1 (a.a. 837-1142) (Homo sapiens, UniProt P23458) | 1.76 |
| O=C(Nc1ccc2cc1CCc1cccc(c1)Nc1ncc(Cl)c(n1)N2)[C@@H]1CCN(C(=O)NC2CCCC2)C1 [Example A63, trifluoroacetate] | human JAK1 (a.a. 837-1142) (Homo sapiens, UniProt P23458) | 0.95 |
| CCC(=O)N1CCC(CC(=O)Nc2ccc3cc2CCc2cncc(c2)Nc2ncc(Cl)c(n2)N3)CC1 [Example A104, bis(trifluoroacetate)] | human JAK1 (a.a. 837-1142) (Homo sapiens, UniProt P23458) | 1.91 |
| O=C(CC1CCN(C(=O)c2cnccn2)CC1)Nc1ccc2cc1CCc1cccc(c1)Nc1ncc(Cl)c(n1)N2 [Example A87, bis(trifluoroacetate)] | human JAK1 (a.a. 837-1142) (Homo sapiens, UniProt P23458) | 1.15 |

Please report log10 IC50 for every entry that follows.
1. CN(C)C(=O)N1CCC(CC(=O)Nc2ccc3cc2CCc2cncc(c2)Nc2ncc(Cl)c(n2)N3)CC1 [Example A95, bis(trifluoroacetate)]
2. Cc1ccc(C(=O)N2CCC(CC(=O)Nc3ccc4cc3CCc3cncc(c3)Nc3ncc(Cl)c(n3)N4)CC2)o1 [Example A162, bis(trifluoroacetate)]
3. COc1ccc(S(=O)(=O)N2CCC(CC(=O)Nc3ccc4cc3CCc3cncc(c3)Nc3ncc(Cl)c(n3)N4)CC2)cc1 [Example A197, bis(trifluoroacetate)]

// result
[0.96, 0.91, 1.48]

====

Please go through the items and note down their pIC50.
target: human JAK3 (a.a. 781-1124) (Homo sapiens); construct: JAK3 (a.a. 781-1124); His tag (N); made in house; host or cells: insect cells (baculovirus); assay: In vitro JAK kinase assay (HTRF, phosphorylation of a biotinylated peptide), JAK3; type: biochemical; conditions: method AA1 (3 μM ATP) or AA2 (1000 μM ATP), not stated per value
Sequence (P52333 781-1124): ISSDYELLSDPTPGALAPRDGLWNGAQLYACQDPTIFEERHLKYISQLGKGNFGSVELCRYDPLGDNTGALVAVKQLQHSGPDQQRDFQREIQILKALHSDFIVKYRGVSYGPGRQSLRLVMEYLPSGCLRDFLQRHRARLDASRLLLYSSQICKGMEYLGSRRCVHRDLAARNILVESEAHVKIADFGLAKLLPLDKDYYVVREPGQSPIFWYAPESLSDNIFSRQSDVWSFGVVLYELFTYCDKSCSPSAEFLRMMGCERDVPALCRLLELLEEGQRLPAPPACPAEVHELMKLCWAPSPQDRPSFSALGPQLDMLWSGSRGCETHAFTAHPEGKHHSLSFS
Counter-ions that a name gives are not always drawn.
Give bare numbers, as −log10 of the molar value.

// worked examples, pIC50 included
| COMPOUND | pIC50 |
| --- | --- |
| O=C(CN1CCNCC1)Nc1ccc2cc1CCc1cncc(c1)Nc1ncc(Cl)c(n1)N2 | 6.52 |
| CCNC(=O)N1CCCC(C(=O)Nc2ccc3cc2CCc2cccc(c2)Nc2ncc(Cl)c(n2)N3)C1 (stereo not drawn) [Example A49, trifluoroacetate] | 7.96 |

Please report pIC50 for every entry that follows.
1. Cn1ccc(C(=O)N2CCC(CC(=O)Nc3ccc4cc3CCc3cncc(c3)Nc3ncc(Cl)c(n3)N4)CC2)n1 [Example A130, bis(trifluoroacetate)]
2. O=C(CC1CCN(C(=O)c2ccno2)CC1)Nc1ccc2cc1CCc1cncc(c1)Nc1ncc(Cl)c(n1)N2 [Example A128, bis(trifluoroacetate)]

// result
1: 6.69; 2: 7.19

====

target: Recombinant Human Anaplastic Lymphoma Kinase (Homo sapiens); construct: purchased Invitrogen, Carlsbad, Calif; assay: ALK HTRF kinase assay; assay type: biochemical; conditions: compound at 500 nM or 1 mM; 90 μM ATP
Sequence (Q9UM73 19-1620): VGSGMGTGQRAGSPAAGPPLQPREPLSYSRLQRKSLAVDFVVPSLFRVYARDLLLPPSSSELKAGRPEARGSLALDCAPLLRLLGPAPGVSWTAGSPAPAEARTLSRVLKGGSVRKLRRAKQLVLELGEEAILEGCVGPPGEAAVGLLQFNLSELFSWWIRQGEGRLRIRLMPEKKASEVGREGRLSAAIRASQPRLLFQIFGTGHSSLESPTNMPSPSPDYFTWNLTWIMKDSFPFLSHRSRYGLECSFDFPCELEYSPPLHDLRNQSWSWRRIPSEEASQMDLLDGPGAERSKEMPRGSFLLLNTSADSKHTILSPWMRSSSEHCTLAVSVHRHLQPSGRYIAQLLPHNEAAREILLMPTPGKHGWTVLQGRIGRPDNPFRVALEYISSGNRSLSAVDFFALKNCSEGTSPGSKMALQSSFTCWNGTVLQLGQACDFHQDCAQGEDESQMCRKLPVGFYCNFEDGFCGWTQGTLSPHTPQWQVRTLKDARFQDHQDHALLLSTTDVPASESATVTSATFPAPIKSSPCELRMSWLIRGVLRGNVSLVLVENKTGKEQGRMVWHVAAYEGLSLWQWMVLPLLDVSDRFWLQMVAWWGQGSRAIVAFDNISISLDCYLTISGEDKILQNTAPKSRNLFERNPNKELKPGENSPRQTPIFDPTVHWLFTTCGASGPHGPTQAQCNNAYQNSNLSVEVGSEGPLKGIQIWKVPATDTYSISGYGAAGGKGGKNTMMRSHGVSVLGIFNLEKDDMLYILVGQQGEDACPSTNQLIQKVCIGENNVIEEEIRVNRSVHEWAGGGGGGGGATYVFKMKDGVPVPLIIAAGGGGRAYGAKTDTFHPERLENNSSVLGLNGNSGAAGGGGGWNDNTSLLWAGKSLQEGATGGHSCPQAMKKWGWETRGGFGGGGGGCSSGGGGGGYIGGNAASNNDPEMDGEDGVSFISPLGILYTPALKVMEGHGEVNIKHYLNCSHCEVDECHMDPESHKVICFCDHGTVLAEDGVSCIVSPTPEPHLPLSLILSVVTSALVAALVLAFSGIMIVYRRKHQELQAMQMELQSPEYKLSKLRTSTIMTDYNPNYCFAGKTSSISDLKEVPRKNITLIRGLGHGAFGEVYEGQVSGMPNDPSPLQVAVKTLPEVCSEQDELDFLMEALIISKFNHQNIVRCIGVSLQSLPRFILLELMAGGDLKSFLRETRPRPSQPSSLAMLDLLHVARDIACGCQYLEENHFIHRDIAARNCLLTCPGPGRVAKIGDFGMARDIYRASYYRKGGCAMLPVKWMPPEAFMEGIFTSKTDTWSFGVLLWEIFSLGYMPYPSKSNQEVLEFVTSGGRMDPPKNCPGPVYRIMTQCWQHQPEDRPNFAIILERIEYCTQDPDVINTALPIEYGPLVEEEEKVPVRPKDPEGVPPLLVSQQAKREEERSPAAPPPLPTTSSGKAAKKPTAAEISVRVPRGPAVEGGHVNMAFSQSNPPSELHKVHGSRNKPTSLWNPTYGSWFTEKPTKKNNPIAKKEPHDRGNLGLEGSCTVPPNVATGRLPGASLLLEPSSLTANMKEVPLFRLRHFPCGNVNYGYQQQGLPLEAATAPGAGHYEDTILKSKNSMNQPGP
Structures can show the parent of a compound that is named as a salt.
Please go through the items and note down their ALK % of inhibition at a concentration of 500 nM or 1 mM.
One number for each entry, in %.

// worked examples, ALK % of inhibition at a concentration of 500 nM or 1 mM included
| MOLECULE | UNIT DESCRIPTOR | OBSERVED |
| --- | --- | --- |
| COc1cccc(S(=O)(=O)N2CCC(CC(=O)Nc3ccc4cc3CCc3cccc(c3)Nc3ncc(Cl)c(n3)N4)CC2)c1 [Example A206, trifluoroacetate] | % | 15 |
| CCNC(=O)N1CCC(CC(=O)Nc2ccc3cc2CCc2cccc(c2)Nc2ncc(Cl)c(n2)N3)CC1 [Example A57, trifluoroacetate] | % | 24 |
| O=C(CNC(=O)Nc1ccccc1)Nc1ccc2cc1CCc1cccc(c1)Nc1ncc(Cl)c(n1)N2 [Example A66, trifluoroacetate] | % | 26 |

Please report ALK % of inhibition at a concentration of 500 nM or 1 mM for every entry that follows.
1. O=C(Nc1ccc2cc1CCc1cccc(c1)Nc1ncc(Cl)c(n1)N2)C1CCN(S(=O)(=O)c2ccccc2)CC1 [Example A42, trifluoroacetate]
2. CC(=O)N1CCN(C(=O)COc2ccc3cc2CCc2cccc(c2)Nc2ncc(Cl)c(n2)N3)CC1 [Example A20, trifluoroacetate]
3. CCS(=O)(=O)N1CCC(CC(=O)Nc2ccc3cc2CCc2cncc(c2)Nc2ncc(Cl)c(n2)N3)CC1 [Example A98, bis(trifluoroacetate)]
4. C[C@H](O)C(=O)Nc1ccc2cc1CCc1cccc(c1)Nc1ncc(Cl)c(n1)N2 [Example A106, trifluoroacetate]
5. N#Cc1ccc(C(=O)N2CCC(CC(=O)Nc3ccc4cc3CCc3cccc(c3)Nc3ncc(Cl)c(n3)N4)CC2)cc1 [Example A186, trifluoroacetate]
6. CC(=O)N1CCC(CC(=O)Nc2ccc3cc2CCc2cncc(c2)Nc2ncc(Cl)c(n2)N3)CC1 [Example A76, bis(trifluoroacetate)]
7. O=C(CC1CCN(S(=O)(=O)c2ccccc2)CC1)Nc1ccc2cc1CCc1cncc(c1)Nc1ncc(Cl)c(n1)N2 [Example A195, bis(trifluoroacetate)]

// result
34
17
34
21
38
21
35

Please report ALK % of inhibition at a concentration of 500 nM or 1 mM for every entry that follows.
1. O=C(Nc1ccccc1)N[C@@H](CO)C(=O)Nc1ccc2cc1CCc1cccc(c1)Nc1ncc(Cl)c(n1)N2 [Example A68, trifluoroacetate]
2. Cc1occc1C(=O)N1CCC(CC(=O)Nc2ccc3cc2CCc2cncc(c2)Nc2ncc(Cl)c(n2)N3)CC1 [Example A160, bis(trifluoroacetate)]
3. COc1ccc(S(=O)(=O)N2CCC(CC(=O)Nc3ccc4cc3CCc3cccc(c3)Nc3ncc(Cl)c(n3)N4)CC2)cc1 [Example A207, trifluoroacetate]
4. O=C(CC1CCN(C(=O)c2c[nH]nn2)CC1)Nc1ccc2cc1CCc1cncc(c1)Nc1ncc(Cl)c(n1)N2 [Example A137, bis(trifluoroacetate)]
5. O=C(CN1CCNCC1)Nc1ccc2cc1CCc1cncc(c1)Nc1ncc(Cl)c(n1)N2

// result
1. 46
2. 19
3. 23
4. 54
5. 20

Please report ALK % of inhibition at a concentration of 500 nM or 1 mM for every entry that follows.
1. O=C(COc1ccc2cc1CCc1cncc(c1)Nc1ncc(Cl)c(n1)N2)N1CCn2c(nnc2C(F)(F)F)C1 [Example A249, bis(trifluoroacetate)]
2. Cc1nocc1C(=O)N1CCC(CC(=O)Nc2ccc3cc2CCc2cncc(c2)Nc2ncc(Cl)c(n2)N3)CC1 [Example A165, bis(trifluoroacetate)]

// result
1. 28
2. 23

====

molecular target: Recombinant Human Anaplastic Lymphoma Kinase (Homo sapiens); construct: purchased Invitrogen, Carlsbad, Calif; test: ALK HTRF kinase assay; assay type: biochemical; conditions: compound at 500 nM or 1 mM; 90 μM ATP
Counter-ions that a name gives are not always drawn.
Decision: ALK % of inhibition at a concentration of 500 nM or 1 mM compared against 30%; not below it gives Y, below it gives N.

| MOLECULE | CATEGORY |
| --- | --- |
| O=C(CC1CCN(C(=O)NC2CCCC2)CC1)Nc1ccc2cc1CCc1cccc(c1)Nc1ncc(Cl)c(n1)N2 [Example A64, trifluoroacetate] | N |
| N#CCC(=O)N1CCC(CC(=O)Nc2ccc3cc2CCc2cncc(c2)Nc2ncc(Cl)c(n2)N3)CC1 [Example A245, bis(trifluoroacetate)] | Y |
| Cc1noc(C)c1S(=O)(=O)N1CCC(CC(=O)Nc2ccc3cc2CCc2cncc(c2)Nc2ncc(Cl)c(n2)N3)CC1 [Example A231, bis(trifluoroacetate)] | Y |

// query API: above_or_equal(metric=ALK % of inhibition at a concentration of 500 nM or 1 mM, cutoff=30%) for item NC(=O)COc1cc2cc(c1)Nc1nc(ncc1Cl)Nc1cccc(c1)CC2
// result Y
